Test system: HS-SY-II synovial sarcoma cell line
protocolNotes: In vitro antiproliferation assay, General Procedure 2 (CCK-8)
Format: cell-based
propertyName: pIC50
Answers are plain numbers, as −log10 of the molar value.

Qu. What value of measured pIC50 is listed for CNCCOCCc1ccc(NC(=O)NCc2ccc3c(c2)CN(C2CCC(=O)NC2=O)C3=O)cc1Cl (stereo not shown) [Compound P1] ?
Ans. 7.93

* * *

Tested on: CFPAC-1 cell line (Pancreatic)
protocolNotes: In vitro antiproliferation assay, General Procedure 1 (WST-8)
Format: cell-based
studyConditions: Homo sapiens
pIC50: −log10 of the molar value.
propertyName: pIC50

Qu. Any idea what its pIC50 is? The molecule is CNCCOCCc1ccc(NC(=O)NCc2ccc3c(c2)CN(C2CCC(=O)NC2=O)C3=O)cc1Cl (stereo not shown) [Compound P1]
Ans. < 7.00

* * *

Test system: SKNO-1 cell line
protocolNotes: In vitro antiproliferation assay, General Procedure 2 (CCK-8)
Type: cell-based
studyConditions: leukemia, acute myeloid leukemia
propertyName: IC50 (nM)
Answers are plain numbers, in nM.

Qu. Given the substance Mylotarg: approved agent, known antibody drug conjugate MYLOTARG , what is its reported IC50?
Ans. 13.4

* * *

Tested on: THLE2 cell line
protocolNotes: In vitro antiproliferation assay, General Procedure 2 (CCK-8)
Assay type: cell-based
studyConditions: THLE-2; Human liver normal
propertyName: IC50 (nM)
Give bare numbers, in nM.

[
  {
    "compound": "O=C1CCC(N2Cc3cc(CNC(=O)Nc4ccc(CCO)c(Cl)c4)ccc3C2=O)C(=O)N1 (stereo not drawn)",
    "targetOfAssay": "THLE2 cell line",
    "IC50, nM": 59.9
  }
]

Kindly consider the entry below.
Qu. # IC50 lookup, item CNc1ccccc1NC(=O)NCc1ccc2c(c1)CN(C1CCC(=O)NC1=O)C2=O (stereo not drawn)
Ans. 6.27

* * *

Test system: HNT-34 cell line
protocolNotes: In vitro antiproliferation assay, General Procedure 2 (CCK-8)
Assay type: cell-based
studyConditions: leukemia, acute myeloid leukemia
propertyName: IC50 (nM)
Answers are plain numbers, in nM.

Qu. So what's the measured IC50 for this one? Mylotarg: approved agent, known antibody drug conjugate MYLOTARG
Ans. 3.77

* * *

Tested on: OCI-AML-6 cell line
protocolNotes: In vitro antiproliferation assay, General Procedure 2 (CCK-8)
Format: cell-based
studyConditions: leukemia, acute myeloid leukemia
propertyName: IC50

Qu. # IC50 lookup, item Mylotarg: approved agent, known antibody drug conjugate MYLOTARG
Ans. > 20 nM

* * *

System: NCI-H2030 cell line (Lung)
protocolNotes: In vitro antiproliferation assay, General Procedure 1 (WST-8)
Assay type: cell-based
studyConditions: Homo sapiens
propertyName: IC50

Qu. Give its IC50 value. Item: CNCCOCCc1ccc(NC(=O)NCc2ccc3c(c2)CN(C2CCC(=O)NC2=O)C3=O)cc1Cl (stereo not shown) [Compound P1]
Ans. > 100 nM

* * *

Tested on: MOLM13 cell line
protocolNotes: In vitro antiproliferation assay, General Procedure 2 (CCK-8)
Format: cell-based
studyConditions: leukemia, acute,myeloid,leukemia suspension; read-out: IC50 (M), Molm-13
propertyName: IC50 (M)
Answers are plain numbers, in M.

Qu. Which IC50 is reported with MOLM13 cell line for this entry: Mylotarg: approved agent, known antibody drug conjugate MYLOTARG ?
Ans. 2.7e-11
